- test-details: protein stability index of a GFP-peptide fusion (yeast GPS) (PSI 1-4); higher = more stable; sorted into four equal gates, so the index is relative within each strain
- test-parameters: doa10∆
Is protein stability index at least 3? Then yes (1). If not, no (0).

(Q) # bool: protein stability index of KRPTPPSFTFGGSTTNN [YOR098C/NUP1] >= 3
(A) no (0)

(Q) Hi team, for IMDELLSSIAERVRNFA [DIB1] , is the recorded protein stability index at or above 3?
(A) no (0)

(Q) Evaluate HTSPHQPSDVKPTSHKQ [SIR4] : protein stability index at minimum 3?
(A) no (0)

(Q) Reported protein stability index reaches at least 3 for QHGFEVQVGPMKVFVTK [RPB7] ?
(A) no (0)

(Q) Does APLNFNPIIENNVDNKY [SSN2] have a reported protein stability index of at least 3?
(A) no (0)

(Q) Does the reported protein stability index for SASHILIPASDLSWSKQ [PRP8] fall at or above the 3 mark?
(A) no (0)

----------
Give protein stability index for every item shown.
- test-details: protein stability index of a GFP-peptide fusion (yeast GPS) (PSI 1-4); higher = more stable; sorted into four equal gates, so the index is relative within each strain
- test-parameters: doa10∆
Numbers only.

Would you please look over these solved cases?
{"columns": ["seq-string", "protein stability index"],
 "data": [
  ["ESYKPSVQLPDMAKLKK [SWI3]", 2.94],
  ["LREEIFIANEGVHTGQF [RPL2A]", 2.8],
  ["NDIFERIATEASKLAAY [HTB1]", 1.93],
  ["NEQLTLLSKKHGQLKLS [RPN5]", 1.6]
]}

Please give protein stability index for each item listed below.
1. FIVVPDLLKNAPLFKKN [SMD3]
2. PLQNNLPELWALLNFVL [SNF2]
3. EFRSAAGQLALDLANSG [YDL116W/NUP84]
4. QLDSYLVNGFSQSQQKL [MED2]
5. IEVTIGIDQYSFNVKEN [AAR2]
6. VVSLKEGMFANANRVFR [SMC2]
7. LEEKILAKKTHKQELQD [SMC4]
8. HGLKQLRDSLADKIVDE [NUT2]

(A)
1: 2.07; 2: 2.69; 3: 2.79; 4: 2.02; 5: 2.67; 6: 2.84; 7: 2.95; 8: 3.11

// for each sequence in input: emit protein stability index
1. WNVEKFKKDFEVNISSL [RPC40]
2. AAPLLALLRENQDSVKT [RPN2]
3. NKGELETQPGCNEEQTL [RPO31]
4. KLAFGLTKLNEDDLVGV [TAF14]
5. YLHNVELGEKKNEKLKF [ISW2]
6. VSSSKNKKSEENEMIKP [SWP82]
7. MGSRRYDSRTTIFSPEG [PRE9]

(A)
1. 2.03
2. 2.55
3. 3.21
4. 2.94
5. 2.84
6. 2.72
7. 3.36

----------
- test-details: protein stability index of a GFP-peptide fusion (yeast GPS) (PSI 1-4); higher = more stable; sorted into four equal gates, so the index is relative within each strain
- test-parameters: doa10∆
Would you kindly list protein stability index for each of these sequences?
One number for each entry.

{"columns": ["seq-string", "data-value"],
 "data": [
  ["MEIVANAKESNYTDLIW [MED1]", 3.27],
  ["LRLDGHTKSDERSELLR [SNF2]", 3.24],
  ["ETKDIRKQIQLLKKIIF [SRB4]", 2.34],
  ["KTAIEGSYIDKKCPFTG [RPS11A]", 3.12],
  ["YPDLQPFVLAENMWPFS [CDC53]", 1.68],
  ["LYTLAQETEGTNRHTLA [SIR3]", 2.73],
  ["KVDATPEESKPINLQNG [YLR335W/NUP2]", 2.9],
  ["PKYAKQKDKSDTYKRFK [ISW2]", 3.12],
  ["AHAIDQMTWRQWLNNAL [POP8]", 2.67],
  ["KELMLQSKKLIEEKLSS [YIL149C/MLP2]", 2.95]
]}

// each listed sequence needs a value for protein stability index
1. VRPSISFNESQRGEDDL [RPO21]
2. INKYESSPSHIELVVTE [RPL17A]
3. GGQIAHILFQNNPDMMI [ROX3]
4. IYDSEDPQQVFDERIKF [RPN3]
5. EGKVTKLRRECSNPTCG [RPS31]
6. KNNNNANNNGSNLQRAQ [GAL11]
7. FGRTLASVTKEILGTAQ [RPL12A]

(A)
1. 2.49
2. 2.08
3. 2.54
4. 3.05
5. 3.31
6. 3.38
7. 1.46
